Hey, just so you know, these numbers are from patent US20240343803A1.

Item-by-item account of % IC50 to parental Ab
Target: T1, human PVRIG-mFc protein (Acro, PVG-H5253) (human, UniProt Q6DKI7 41-171, limits assumed)
T1 construct: extracellular domain; Bought protein; also called PVRIG-ECD-mFc; not shown: mouse Fc tag of the bought protein
T1 sequence (looked up): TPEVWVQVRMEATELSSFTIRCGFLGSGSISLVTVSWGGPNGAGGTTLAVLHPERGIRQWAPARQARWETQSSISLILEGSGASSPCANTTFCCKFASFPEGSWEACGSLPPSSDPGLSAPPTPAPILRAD
Assay: FACS blocking of PVRIG-mFc binding to CHO-K1-CD112 cells; competitor CD112
Write it as a number; the unit % goes unstated.

{"Binder": "PVRIG-A50-H1e (Fc fusion, VHH-human IgG1 Fc format is stated for the parental VHH antibodies; not restated for the humanized variants; also called VH1e; not shown: human IgG1 hinge-CH2-CH3 (Fc)) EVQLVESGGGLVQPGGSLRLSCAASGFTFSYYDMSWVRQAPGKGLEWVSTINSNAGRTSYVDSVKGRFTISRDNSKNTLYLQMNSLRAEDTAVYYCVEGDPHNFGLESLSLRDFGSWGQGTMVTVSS", "Unit symbol": "%", "% IC50 to parental Ab": 111}
{"Binder": "PVRIG-A118-H6 (Fc fusion, VHH-human IgG1 Fc format is stated for the parental VHH antibodies; not restated for the humanized variants; also called A118.VH6; not shown: human IgG1 hinge-CH2-CH3 (Fc)) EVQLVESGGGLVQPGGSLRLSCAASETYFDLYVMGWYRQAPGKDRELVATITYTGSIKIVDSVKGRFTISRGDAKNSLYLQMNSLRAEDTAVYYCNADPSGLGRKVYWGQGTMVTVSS", "Unit symbol": "%", "% IC50 to parental Ab": 103}
{"Binder": "PVRIG-A50-H2a (Fc fusion, VHH-human IgG1 Fc format is stated for the parental VHH antibodies; not restated for the humanized variants; also called A50.VH2a; not shown: human IgG1 hinge-CH2-CH3 (Fc)) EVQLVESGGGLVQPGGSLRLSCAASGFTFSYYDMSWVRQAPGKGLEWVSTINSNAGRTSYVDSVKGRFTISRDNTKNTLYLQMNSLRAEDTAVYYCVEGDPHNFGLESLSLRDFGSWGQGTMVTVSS", "Unit symbol": "%", "% IC50 to parental Ab": 101}

Below: the item to evaluate.
Q) # query: % IC50 to parental Ab of entry PVRIG-A105-H3 (Fc fusion, VHH-human IgG1 Fc format is stated for the parental VHH antibodies; not restated for the humanized variants; also called A105.VH3; not shown: human IgG1 hinge-CH2-CH3 (Fc)) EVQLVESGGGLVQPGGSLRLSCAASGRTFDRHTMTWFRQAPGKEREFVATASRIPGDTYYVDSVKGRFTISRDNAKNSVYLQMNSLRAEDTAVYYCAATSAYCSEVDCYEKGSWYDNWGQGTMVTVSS
A) 104
